test system: Antibody to CS2; assay: ELISA of 8-mer peptides (pins) with rabbit serum; assay type: binding; settings: Antibody to CS2, rabbit 1076; a listed pin number means recognized
Binary label based on pins (8-aa peptide) recognized by serum with cut-off 9: below gives true, not below gives false.

>>> classassignment("VDPTIDLL (listed as Escherichia coli) [compound 11]")
"false"
>>> classassignment("SVDPTIDL (listed as Escherichia coli) [compound 10]")
"false"
>>> classassignment("TASVDPTI (listed as Escherichia coli) [compound 8]")
"true"
>>> classassignment("DPTIDLLQ (listed as Escherichia coli) [compound 12]")
"false"
>>> classassignment("VTASVDPT (listed as Escherichia coli) [compound 7]")
"true"

* * *

test system: Antibody to 0166 lower; assay: ELISA of 8-mer peptides (pins) with rabbit serum; format: binding; details: rabbit 1082, a listed pin number means recognized
Binary call on pins (8-aa peptide) recognized by serum: 1 (yes) from 10 upward, 0 (no) beneath that.

>>> classassignment("PTIDLLQA (listed as Escherichia coli) [compound 13]")
"1 (yes)"
>>> classassignment("ASVDPTID (listed as Escherichia coli) [compound 9]")
"0 (no)"
>>> classassignment("TIDLLQAD (listed as Escherichia coli) [compound 14]")
"1 (yes)"
>>> classassignment("VDPTIDLL (listed as Escherichia coli) [compound 11]")
"1 (yes)"
>>> classassignment("DPTIDLLQ (listed as Escherichia coli) [compound 12]")
"1 (yes)"

* * *

tested on: Antibody to CS2; test: ELISA of 8-mer peptides (pins) with rabbit serum; type: binding; settings: Antibody to CS2, rabbit 1077; a listed pin number means recognized
Measured pins (8-aa peptide) recognized by serum of individual entries
readoutKind: pins (8-aa peptide) recognized by serum

>>> reportedresult("VTASVDPT (listed as Escherichia coli) [compound 7]")
7
>>> reportedresult("VDPTIDLL (listed as Escherichia coli) [compound 11]")
11
>>> reportedresult("TASVDPTI (listed as Escherichia coli) [compound 8]")
8
>>> reportedresult("SVDPTIDL (listed as Escherichia coli) [compound 10]")
10
>>> reportedresult("ASVDPTID (listed as Escherichia coli) [compound 9]")
9
>>> reportedresult("ALPSAVAL (listed as Escherichia coli) [compound 24]")
24

* * *

tested on: Antibody to 0166 lower; test: ELISA of 8-mer peptides (pins) with rabbit serum; format: binding; settings: rabbit 1083, a listed pin number means recognized
readoutKind: pins (8-aa peptide) recognized by serum

>>> reportedresult("DPTIDLLQ (listed as Escherichia coli) [compound 12]")
12
>>> reportedresult("EKNITVTA (listed as Escherichia coli) [compound 2]")
2
>>> reportedresult("KNITVTAS (listed as Escherichia coli) [compound 3]")
3
>>> reportedresult("PTIDLLQA (listed as Escherichia coli) [compound 13]")
13
